target_or_test_system: Histone-lysine N-methyltransferase EHMT2 (Homo sapiens) (UniProt Q96KQ7)
Sequence (Q96KQ7 913-1193 limits assumed): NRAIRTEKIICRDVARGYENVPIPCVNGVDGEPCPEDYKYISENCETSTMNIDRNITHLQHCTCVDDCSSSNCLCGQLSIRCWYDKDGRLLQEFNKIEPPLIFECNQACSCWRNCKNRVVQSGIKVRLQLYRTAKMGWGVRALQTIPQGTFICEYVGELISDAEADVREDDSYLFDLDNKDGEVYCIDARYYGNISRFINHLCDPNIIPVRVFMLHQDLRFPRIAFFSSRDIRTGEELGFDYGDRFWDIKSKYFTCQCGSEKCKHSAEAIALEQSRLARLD
assay_details: qHTS Assay for Inhibitors of Histone Lysine Methyltransferase G9a; also: % is scaled to controls: 0 for no effect and ±100 for the full control effect; nearly all actives have a fitted effect of over 75% in size
run_conditions: G9a H3K9 monomethylation, AlphaScreen, 2 h; series mostly up to 59 µM
Procedure: Methylated lysines, on the N-terminal tails of histone proteins serve as epigenetic markers to recruit factors that can then modify local chromatin structure to lead to functional consequences. […] Methylation of biotinylated-histone peptide is measured through specific antibody-based detection, in conjunction with streptavidin-coated donor and anti-IgG antibody-coated acceptor beads. […]
Among all 350,000 compounds or so, about 31,000 (8.9%) were called active. Not shown: some 15% with an inconclusive outcome. This is one part of a sample in which actives are shown more often than they occur.
measurement_label: outcome

> print(dat)
                         structure.notation  measurement.label  value.measured
1  Cn1nc(-c2ccccc2)c(-c2ccccc2)c(C(=O)Nc2ccc(S(N)(=O)=O)cc2)c1=O            outcome        inactive
2  COc1cc(OC)cc(-c2nnc(N(C)C(=O)c3ccncc3)s2)c1            outcome        inactive
3        O=C(/C=C/c1c(Cl)cccc1Cl)NCc1ccccc1            outcome        inactive

* * *

Recorded activity, negative = inhibition for the following compounds
target_or_test_system: Histone-lysine N-methyltransferase EHMT2 (Homo sapiens) (UniProt Q96KQ7)
assay_details: qHTS Assay for Inhibitors of Histone Lysine Methyltransferase G9a; also: % is scaled to controls: 0 for no effect and ±100 for the full control effect; nearly all actives have a fitted effect of over 75% in size
run_conditions: G9a H3K9 monomethylation, AlphaScreen, 2 h; series mostly up to 59 µM
Out of some 350,000 compounds screened, about 31,000 (8.9%) were called active. Inconclusive results (about 15%) are left out. Only a selection was taken, and actives are over-represented in it overall.
measurement_label: activity, negative = inhibition

> print(dat)
                                    compound                measurement.label                   value.measured
 1  COc1ccc(CCN(Cc2cc3cccc(C)c3[nH]c2=O)C(=O)N2CCCC2)cc1OC  activity, negative = inhibition   -36.8% [at 12.7 µM] (inactive)
 2  CCc1nnc(NC(=O)CSc2nc3c(c(=O)n2-c2ccccc2OC)SCC3)s1  activity, negative = inhibition   -12.8% [at 12.7 µM] (inactive)
 3     Cc1ccc(C)c(NC(=O)COC(=O)CSc2ccccc2)c1  activity, negative = inhibition  0.0476% [at 12.7 µM] (inactive)
 4  CN(CCO)S(=O)(=O)c1ccc2c(c1)C(=O)c1cc(S(=O)(=O)N(C)CCO)ccc1-2  activity, negative = inhibition   6.15% [at 0.501 µM] (inactive)
 5              Oc1ccc2nc(Cc3ccccc3)[nH]c2c1  activity, negative = inhibition   -45.3% [at 12.7 µM] (inactive)
 6  COc1ccc(C(=O)NCC2CCCCC2)cc1S(=O)(=O)N1CCCC1  activity, negative = inhibition   -36.7% [at 12.7 µM] (inactive)
 7  CC(=O)NS(=O)(=O)c1ccc(NC(=S)NC(=O)C(C)(C)C)cc1  activity, negative = inhibition  -14.5% [at 0.501 µM] (inactive)
 8  Cc1cccc(-c2oc3ccc(-c4ccc5c(c4)OCO5)cc3c2C#Cc2cncn2C)c1  activity, negative = inhibition   7.97% [at 0.501 µM] (inactive)
 9            O=C(Nc1ccccc1F)c1ccc2c(c1)OCO2  activity, negative = inhibition  -7.42% [at 0.501 µM] (inactive)
10  CCNC(=O)c1cccc(NC(=O)C2CC(=O)N(CCc3ccccc3)C2)c1 (centres undefined)  activity, negative = inhibition   8.14% [at 0.501 µM] (inactive)
11  O=C1C=C(c2cc(C(F)(F)F)cc(C(F)(F)F)c2)C[C@@H](c2ccc3c(c2)OCO3)C1  activity, negative = inhibition   10.2% [at 0.501 µM] (inactive)
12  COc1ccccc1NC(=O)C1=C(C)Nc2ncnn2C1c1ccc(C)o1 (centres undefined)  activity, negative = inhibition   -42.2% [at 12.7 µM] (inactive)
13          Cc1cccc(C)c1NC(=O)CNC(=O)C1CCCC1  activity, negative = inhibition    26.8% [at 12.7 µM] (inactive)
14  O=C(CSc1nnc(COc2ccc(Cl)cc2)n1Cc1ccco1)N1CCNC1=O  activity, negative = inhibition  -16.3% [at 0.501 µM] (inactive)
15  O=C(Cc1ccc(S(=O)(=O)N2CCOCC2)s1)N1CCN(c2ccc(C(F)(F)F)cc2[N+](=O)[O-])CC1  activity, negative = inhibition   5.52% [at 0.501 µM] (inactive)
16  Cc1ccc(NC(=O)CSc2nnc(-c3cnccn3)n2Cc2ccco2)cc1C  activity, negative = inhibition    7.37% [at 12.7 µM] (inactive)
17  CCCCN(C(=O)c1ccc(S(=O)(=O)N2CCOCC2)cc1)C1CCS(=O)(=O)C1 (centres undefined)  activity, negative = inhibition   4.15% [at 0.501 µM] (inactive)
18  COc1ccccc1NS(=O)(=O)c1ccc(C)c(C(=O)NCC(c2ccco2)N(C)C)c1 (centres undefined)  activity, negative = inhibition   22.9% [at 0.501 µM] (inactive)
19  Cc1nc2ccccc2c(=O)n1NC(=O)c1ccc(Cl)c([N+](=O)[O-])c1  activity, negative = inhibition   -4.51% [at 2.33 µM] (inactive)
20   COc1ccc(S(=O)(=O)Nc2cc(C)on2)cc1NC(C)=O  activity, negative = inhibition    2.19% [at 12.7 µM] (inactive)
21  O=C(CN1C(=O)NC2(CCOc3ccccc32)C1=O)NCc1ccc(F)cc1 (centres undefined)  activity, negative = inhibition    28.5% [at 12.7 µM] (inactive)
22  COc1ccc([C@H]2CC(=O)C=C(c3ccc(C)cc3)C2)cc1  activity, negative = inhibition  -2.52% [at 0.501 µM] (inactive)
23        Cc1cc(C(=O)NNC(=O)c2ccccc2O)c(C)o1  activity, negative = inhibition    72.2% [at 12.7 µM] (inactive)
24  O=C(CN1C(=O)NC2(CCCCC2)C1=O)N1CCN(C(=O)c2cccs2)CC1  activity, negative = inhibition     -17% [at 2.33 µM] (inactive)
25  COc1cc(C#Cc2ccc3cc(CCCO)oc(=O)c3c2)cc(OC)c1  activity, negative = inhibition  -2.15% [at 0.501 µM] (inactive)
26  Cc1cccc(N2CCN(Cc3c(C)n(C)n(-c4ccccc4)c3=O)CC2)c1C  activity, negative = inhibition    11.6% [at 12.7 µM] (inactive)
27            Cc1ccccc1CSc1nnc(-c2cccnc2)n1N  activity, negative = inhibition    3.07% [at 12.7 µM] (inactive)
28  CN(CC(=O)NNC(=O)CNC(=O)c1ccccc1Cl)S(=O)(=O)c1ccc(Cl)cc1  activity, negative = inhibition   4.73% [at 0.501 µM] (inactive)
29  COc1ccc([C@H]2CC(=O)C=C(/C=C/c3ccc(Cl)cc3)C2)cc1  activity, negative = inhibition    9.28% [at 2.33 µM] (inactive)
